Target: T1, RXFP1 receptor (UniProt Q9HBX9 1-757, limits assumed)
T1 sequence (looked up): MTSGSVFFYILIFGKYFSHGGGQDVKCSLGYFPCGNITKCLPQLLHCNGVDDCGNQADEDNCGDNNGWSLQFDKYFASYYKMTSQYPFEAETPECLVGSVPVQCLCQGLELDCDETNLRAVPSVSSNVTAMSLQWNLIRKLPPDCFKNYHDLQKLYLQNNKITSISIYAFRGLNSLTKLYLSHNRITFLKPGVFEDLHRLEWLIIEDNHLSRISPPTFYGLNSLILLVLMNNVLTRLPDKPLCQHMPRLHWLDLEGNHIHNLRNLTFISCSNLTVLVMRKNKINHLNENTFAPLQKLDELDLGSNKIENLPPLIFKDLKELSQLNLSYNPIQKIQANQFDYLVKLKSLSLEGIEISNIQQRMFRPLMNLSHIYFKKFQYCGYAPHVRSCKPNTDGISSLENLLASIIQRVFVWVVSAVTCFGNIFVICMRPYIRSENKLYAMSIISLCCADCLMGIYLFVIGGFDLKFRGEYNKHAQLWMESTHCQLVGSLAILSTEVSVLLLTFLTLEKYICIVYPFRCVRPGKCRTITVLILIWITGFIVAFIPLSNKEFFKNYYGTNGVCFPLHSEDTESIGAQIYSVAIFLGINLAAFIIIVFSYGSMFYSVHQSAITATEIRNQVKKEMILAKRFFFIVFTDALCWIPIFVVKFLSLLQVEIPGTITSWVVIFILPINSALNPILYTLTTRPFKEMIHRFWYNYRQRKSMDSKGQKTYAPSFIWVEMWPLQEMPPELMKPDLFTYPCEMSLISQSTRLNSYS
Experiment: cell-based or functional assay
*1 amine or outer side, *2 acyl side, *3 side chain or, on linkers, in order; H or OH if unused. Primed or numbered codes have the meaning given here. Side-chain parts run from the residue outwards. [ ]: non-standard residue; d: D form. The star is where a group is joined. PEG28′ = polyethylene glycol spacer with 28 ethoxy units (aminoethoxy-ethoxy chain); γGlu = O=C(O)[C@H](CCC(=O)[*:2])N[*:1]; Stearoyl = CCCCCCCCCCCCCCCCCC(=O)*; Palmitoyl = CCCCCCCCCCCCCCCC(=O)*; αMeK = C[C@](N)(CCCCN)C(=O)O; Nle = CCCC[C@H](N)C(=O)O; PEG2′ = PEG2 spacer unit; PEG2″ = not defined here; Aib = CC(C)(N)C(=O)O
Below, each of the binders is paired with its reported EMax, OVCAR 5 cells (cAMP) value.
Parameter Measured: EMax, OVCAR 5 cells (cAMP) (%)

Binder	Parameter Measured	Unit Descriptor	Numeric Result
Ac-LEGREKVRAK(Ac)I[Aib][Aib]EG[Nle]STFS[αMeK]RKK(Ac)[PEG2′][PEG2′][PEG2′][PEG2′]K([γGlu-γGlu-γGlu-γGlu-Palmitoyl])-NH2 [peptide of SEQ ID NO: 143]	EMax, OVCAR 5 cells (cAMP)	%	88
Ac-LEGREKVRAK(Ac)I[Aib][Aib]EG[Nle]STWS[Aib]RKK[PEG28′]K([γGlu-γGlu-γGlu-Stearoyl])-NH2 [peptide of SEQ ID NO: 48]	EMax, OVCAR 5 cells (cAMP)	%	99
Ac-LEGREKVRAK(Ac)I[Aib][Aib]EG[Nle]STWS[αMeK]RKK(Ac)[PEG2″][PEG2″][PEG2″]K([γGlu-γGlu-γGlu-γGlu-Stearoyl])-NH2 [peptide of SEQ ID NO: 16]	EMax, OVCAR 5 cells (cAMP)	%	87
Ac-LEGREKVRAQI[Aib][Aib]EG[Nle]STWS[Aib]RKK([PEG2″-PEG2″-PEG2″-γGlu-γGlu-γGlu-Stearoyl])-NH2 [peptide of SEQ ID NO: 74]	EMax, OVCAR 5 cells (cAMP)	%	85
